For each record, write down the corresponding normalized growth.
assayExplanation: chemical genetic growth profiling, strain panel (AID 1159580);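 further: tested at 20 µM; growth read once vehicle control cultures reached saturation at 30 °C; 1 = growth at the plate median or of vehicle wells; lower values mean less growth of the strain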
statedConditions: S. cerevisiae deletion strains, growth OD, locus YPR119W, strain clb2, active compounds read low
Among all 5,500 compounds or so, about 2,000 (36%) were called active. Roughly 18% stayed inconclusive and do not appear here. Some of the results follow.

Ask: Could you please provide reported normalized growth for C/C=C(\C)C(=O)OC1[C@@H]2C=C3C4CC(=O)O[C@@H](c5ccoc5)[C@]4(C)CCC3[C@@](C)(C2=O)[C@@H](C(O)C(=O)OC)C1(C)C (stereo not given in full) ? Thanks!
Result: 1.02 (inactive)

Ask: Could you please provide reported normalized growth for COc1cc(OC)c2c(c1Cl)OC1(C2=O)C(O)=CC(=O)CC1C (stereo not given) ? Thanks!
Result: 0.986 (inactive)

Ask: Could you please provide reported normalized growth for Cn1cnc([N+](=O)[O-])c1Sc1ncnc2nc[nH]c12 ? Thanks!
Result: 0.991 (inactive)

Ask: Could you please provide reported normalized growth for CC(C)CCCC(C)C1CCC2C3CCC4CC(=O)CCC4(C)C3CCC12C (stereo not given) ? Thanks!
Result: 1.01 (inactive)

Ask: Could you please provide reported normalized growth for CC(=O)OCC(=O)[C@@]1(O)CCC2C3CCC4=CC(=O)CC[C@]4(C)[C@@]3(F)[C@@H](O)C[C@@]21C (stereo not given in full) ? Thanks!
Result: 0.997 (inactive)

Ask: Could you please provide reported normalized growth for C[C@]12CCC3C(CC[C@H]4CC(=O)CC[C@]34C)C1CCC2=O (stereo not given in full) ? Thanks!
Result: 1.01 (inactive)

Ask: Could you please provide reported normalized growth for N#C/C(=C\c1ccc(O)cc1)C(=O)O ? Thanks!
Result: 1 (inactive)

Ask: Could you please provide reported normalized growth for COc1c2occc2cc2ccc(=O)oc12 ? Thanks!
Result: 0.998 (inactive)

Ask: Could you please provide reported normalized growth for CCN(CC)CCNC(=O)COc1ccc(OC)cc1 ? Thanks!
Result: 0.99 (inactive)

Ask: Could you please provide reported normalized growth for CC(C)=CCOc1cc2oc(=O)ccc2cc1O ? Thanks!
Result: 0.971 (inactive)

Ask: Could you please provide reported normalized growth for CC(=O)N[C@@H](CC(=O)O)C(=O)O ? Thanks!
Result: 1.02 (inactive)

Ask: Could you please provide reported normalized growth for COc1ccc2c(c1)[nH]c1c(C)nccc12 ? Thanks!
Result: 0.988 (inactive)

Ask: Could you please provide reported normalized growth for C[C@]12C=CC(=O)C=C1CCC1C2C(=O)C[C@@]2(C)C1CC[C@]2(O)C(=O)CO (stereo not given in full) ? Thanks!
Result: 0.982 (inactive)

Ask: Could you please provide reported normalized growth for COC(=O)C[C@H]1C(C)(C)C(OC(C)=O)[C@]2(O)C=C3C4CC(=O)O[C@@H](c5ccoc5)[C@]4(C)CCC3[C@@]1(C)C2=O (stereo not given in full) ? Thanks!
Result: 1.02 (inactive)

Ask: Could you please provide reported normalized growth for O=C(CCCN1CC=C(n2c(=O)[nH]c3ccccc32)CC1)c1ccc(F)cc1 ? Thanks!
Result: 0.989 (inactive)

Ask: Could you please provide reported normalized growth for O=C1c2ccccc2C(=O)c2c1ccc(O)c2O ? Thanks!
Result: 0.558 (active)

Ask: Could you please provide reported normalized growth for COc1cc2ccc(=O)oc2c2ccoc12 ? Thanks!
Result: 0.99 (inactive)

Ask: Could you please provide reported normalized growth for C=C(C)c1cc2cc(C(C)=O)c(O)cc2o1 ? Thanks!
Result: 0.942 (inactive)

Ask: Could you please provide reported normalized growth for O=c1[nH]cnc2nc[nH]c12 ? Thanks!
Result: 0.99 (inactive)

Ask: Could you please provide reported normalized growth for CCCC(=O)Nc1ncnc2c1ncn2C1O[C@@H]2COP(=O)(O)O[C@H]2[C@H]1OC(=O)CCC (stereo not given in full) ? Thanks!
Result: 1.02 (inactive)

These entries and their values trace back to PubChem BioAssay AID1159580.
